tested on: permeabilized human peripheral blood mononuclear cells (PBMCs); assay: High-resolution respirometry of permeabilized human PBMCs; conditions: PBMC, read-out: IC50 for inhibition of OXPHOSCI capacity
Quantity Kind: IC50 (µM)

{"Structure Smiles String": "CN(C)C(=N)N=C(N)N", "Measured Number": 450}

* * *

tested on: intact cells; experiment: Screening assay 3: uncoupling in intact cells; further: tested at 1000 µM; type: cell-based, human; design: key: (+): Brackets [( )] indicate an intermediate effect, i.e. (+++) is between ++ and +++; graded either +, ++ or +++ in increasing order of potency; (++): Brackets [( )] indicate an intermediate effect, i.e. (+++) is between ++ and +++; graded either +, ++ or +++ in increasing order of potency; (+++) is between ++ and +++; graded either +, ++ or +++ in increasing order of potency; settings: screening assay 3
Quantity Kind: Uncoupling: level of oxygen consumption after addition of oligomycin

{"Compound": "CC(=O)NCC(C)(C)SC(=O)CCC(=O)O", "Result": "(+)"}
{"Compound": "CC(=O)OC(CCCN1C(=O)c2ccccc2C1=O)OC(=O)CCC(=O)O (stereo not drawn)", "Result": "(+)"}
{"Compound": "CCC(=O)NCCSC(=O)CCC(=O)O", "Result": "(+)"}
{"Compound": "CCN(CC)C(=O)COCCSC(=O)CCC(=O)O", "Result": "+"}
{"Compound": "CC(=O)OC(CCCOC(=O)CCC(=O)O)OC(=O)CCC(=O)O (stereo not drawn)", "Result": "(+)"}
{"Compound": "CCC(=O)N[C@@H](CSC(=O)CCC(=O)SC[C@H](NC(=O)CC)C(=O)OC)C(=O)OC", "Result": "(+)"}
{"Compound": "CCC(=O)N[C@@H](CSC(=O)CCC(=O)O)C(=O)O", "Result": "(+)"}
{"Compound": "CC(=O)NCCSC(=O)CCC(=O)O", "Result": "+"}
{"Compound": "CCC(=O)N[C@@H](CSC(=O)CCC(=O)SC[C@H](NC(=O)CC)C(=O)N(CC)CC)C(=O)N(CC)CC", "Result": "(+)"}
